All figures here come from ChEMBL document CHEMBL5390237.

Entries and their inhibition
# test_system: Histone deacetylase 2 (Homo sapiens)
# Sequence (Q92769 whole entry): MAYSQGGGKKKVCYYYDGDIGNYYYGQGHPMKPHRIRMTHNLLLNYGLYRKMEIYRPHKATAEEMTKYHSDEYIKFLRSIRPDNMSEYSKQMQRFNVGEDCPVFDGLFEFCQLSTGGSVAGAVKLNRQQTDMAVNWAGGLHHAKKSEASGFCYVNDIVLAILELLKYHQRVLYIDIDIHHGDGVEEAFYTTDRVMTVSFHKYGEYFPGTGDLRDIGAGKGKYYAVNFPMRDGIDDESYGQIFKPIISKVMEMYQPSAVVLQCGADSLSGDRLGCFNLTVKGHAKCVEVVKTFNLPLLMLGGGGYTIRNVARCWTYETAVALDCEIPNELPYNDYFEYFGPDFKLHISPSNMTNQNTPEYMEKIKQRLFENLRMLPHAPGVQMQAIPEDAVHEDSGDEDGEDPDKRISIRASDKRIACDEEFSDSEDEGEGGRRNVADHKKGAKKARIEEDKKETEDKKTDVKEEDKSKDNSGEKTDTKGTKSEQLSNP
# test_method_notes: Inhibition of full-length recombinant human C-terminal GST tagged HDAC2 expressed in Sf9 insect cells using aminoluciferin peptide substrate at 100 nM preincubated for 3 hrs followed by substrate addition and measured after 30 mins by HDAC-Glo I/II chemiluminescence assay
# experimental_parameters: time 3.5 hrs

{"compound": "Nc1ccc(-c2cccs2)cc1NC(=O)c1ccc(-c2cn(CCc3ccsc3)nn2)s1", "uom": "%", "inhibition": 27}
{"compound": "Nc1ccc(-c2cccs2)cc1NC(=O)c1cccc(-c2cn(-c3ccccc3-c3ccccc3)nn2)c1", "uom": "%", "inhibition": 0}
{"compound": "Nc1ccc(-c2ccccc2)cc1NC(=O)CCc1cn(C[S+]([O-])c2ccccc2)nn1 (stereo not given)", "uom": "%", "inhibition": 8}
{"compound": "Cc1csc(CCn2cc(CCC(=O)Nc3cc(-c4ccccc4)ccc3N)nn2)n1", "uom": "%", "inhibition": 29}
{"compound": "Nc1ccc(-c2ccsc2)cc1NC(=O)CCc1cn(CCc2ccc([N+](=O)[O-])cc2)nn1", "uom": "%", "inhibition": 20}
{"compound": "Nc1ccc(-c2ccccc2)cc1NC(=O)c1cn(CCN2CCc3ccccc3C2)nn1", "uom": "%", "inhibition": 0}
{"compound": "Nc1ccc(-c2ccccc2)cc1NC(=O)CCc1cn(Cc2ccc(Oc3ccccc3)cc2)nn1", "uom": "%", "inhibition": 0}
{"compound": "Cc1ccccc1CCn1cc(CCC(=O)Nc2cc(-c3cccnc3)ccc2N)nn1", "uom": "%", "inhibition": 0}
{"compound": "Nc1ccc(-c2ccsc2)cc1NC(=O)c1cn(Cc2cccc(-c3ccccc3)c2)nn1", "uom": "%", "inhibition": 0}
{"compound": "Nc1ccc(-c2cccs2)cc1NC(=O)c1ccc(-c2cn(-c3ccc(I)cc3)nn2)cc1", "uom": "%", "inhibition": 0}
{"compound": "Nc1ccc(-c2cccs2)cc1NC(=O)c1cn(Cc2cccc(-c3ccccc3)c2)nn1", "uom": "%", "inhibition": 6}
{"compound": "Nc1ccc(-c2cccs2)cc1NC(=O)c1cn(-c2ccc(I)cc2)nn1", "uom": "%", "inhibition": 0}
{"compound": "Nc1ccc(-c2ccc(F)cc2)cc1NC(=O)c1cn(Cc2ccc3ccccc3n2)nn1", "uom": "%", "inhibition": 27}
{"compound": "Nc1ccc(-c2ccsc2)cc1NC(=O)c1cn(Cc2cccc(C(=O)O)c2)nn1", "uom": "%", "inhibition": 0}
{"compound": "Nc1ccc(-c2cccnc2)cc1NC(=O)CCc1cn(CCc2ccsc2)nn1", "uom": "%", "inhibition": 1}
{"compound": "Nc1ccc(-c2cccs2)cc1NC(=O)c1ccc(-c2cn(Cc3ccc(OC(F)(F)F)cc3)nn2)cc1", "uom": "%", "inhibition": 5}
{"compound": "Nc1ccc(-c2ccc(F)cc2)cc1NC(=O)CCc1cn(CC(=O)Nc2ccc(F)cc2)nn1", "uom": "%", "inhibition": 16}
{"compound": "Cc1ccc(-n2cc(C(=O)Nc3cc(-c4cccs4)ccc3N)nn2)cc1C", "uom": "%", "inhibition": 0}
{"compound": "Nc1ccc(-c2ccsc2)cc1NC(=O)c1cn(-c2ccc(I)cc2)nn1", "uom": "%", "inhibition": 0}
{"compound": "Nc1ccc(-c2cccs2)cc1NC(=O)c1ccc(-c2cn(CCCc3ccccc3)nn2)s1", "uom": "%", "inhibition": 16}
